Listed here are compounds together with their documented solubility.
# protocol-description: Compound solubility in water
# Assay type: physicochemical

Completed entries (count: 3):
Given the entry Cc1cc(Oc2ccncc2)nc2c(C(=O)N[C@@H](C)C3CC3)ncn12 [III-123] , report its measured solubility.
29.6 µg/mL

Given the entry Cc1cc(-c2ccnn2C)nc2c(C(=O)NC(C)(C)C3CC3)ncn12 [III-69] , report its measured solubility.
8.5 µg/mL

Given the entry CNc1cc(C)n2cnc(C(=O)NC(c3ccc(F)cc3)C(F)(F)F)c2n1 (stereo not drawn) [III-17] , report its measured solubility.
0.9 µg/mL

Next:
Given the entry Cc1cc(-c2ccns2)nc2c(C(=O)NC(C)(C)C3CC3)ncn12 [III-60] , report its measured solubility.
4 µg/mL

Given the entry Cc1cc(-c2cccnc2)nc2c(C(=O)N[C@H]3CC[C@H](OC(C)(C)C)CC3)ncn12 [III-64] , report its measured solubility.
32.2 µg/mL

Given the entry C#CC(C)(C)NC(=O)c1ncn2c(C)cc(-c3cccc(OC)c3)nc12 [III-157] , report its measured solubility.
2.1 µg/mL

Given the entry COc1ccnc(-c2cc(C)n3cnc(C(=O)NC(C)C4CC4)c3n2)c1 (stereo not drawn) [III-100] , report its measured solubility.
7.2 µg/mL

Given the entry Cc1cc(-c2nccs2)nc2c(C(=O)NC(C)(C)C3CC3)ncn12 [III-61] , report its measured solubility.
5.5 µg/mL

Given the entry CCCCO[C@H]1C[C@H]2CC[C@@H](C1)[C@H]2NC(=O)c1ncn2c(C)cc(-c3cccnc3)nc12 [III-63] , report its measured solubility.
3.5 µg/mL
